method notes: human hepatoma cell viability loss – ATP luminescence, cytotoxicity control for P. falciparum antimalarial project, primary screen (AID 2303);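 also: 0% = DMSO wells and 100% = digitonin-killed cells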
test context: HepG2 viability, 24-48 h, at 10 µM, hits give high values
Items are presented alongside their recorded inhibition.
experimental readout: inhibition (%)

compound	experimental readout	test result
O=S(=O)(c1ccccc1OC(F)(F)F)C1C[C@H]2CC[C@@H](C1)N2S(=O)(=O)c1cccc(C(F)(F)F)c1 (stereo not given in full)	inhibition	5
O=C(NOCCCCOc1ccc(Cl)c(Cl)c1)c1ccccc1	inhibition	2
CCN(CC)CCN(Cc1ccc(-c2ccc(C(F)(F)F)cc2)cc1)C(=O)Cn1c(CCc2cccc(F)c2F)nc(=O)c2cc(C)ccc21	inhibition	19
CC(C)NCc1ccc(-c2cccc(NC(=O)c3cccc(C#N)c3)c2)cc1	inhibition	9
CCCCN(CCCC)CCCCCCNc1c2ccccc2nc2ccccc12	inhibition	49

Cited source: PubChem BioAssay
